Recorded IC50 values for a group of compounds are listed next.
# System: wt-TMD8 diffuse large B-cell lymphoma cells
# method: Cell proliferation assay wt-TMD8 (ATPlite, 120 hours)
# Format: cell-based
# experimental.conditions: B-cell; wt-TMD8 cells, 120 hours, ATPlite; read-out: IC50 wt-TMD8
property.name: IC50

| compound | property.name | value.reported |
| --- | --- | --- |
| CC(=O)N1CC/C=C/c2cnc(N)c3c(-c4ccc(C(=O)Nc5cc(C(F)(F)F)ccn5)cc4)nc(n23)[C@@H]2CC[C@H](C2)NC(=O)C1 [Example 220] | IC50 | < 100 nM |
| C[C@@H]1C[C@@H](C)n2nc(-c3ccc(C(=O)Nc4cc(C(F)(F)F)ccn4)cc3)c3c(N)ncc(c32)/C=C/COCCC(=O)N1 [Example 176] | IC50 | < 100 nM |
| C[C@@H]1CCn2nc(-c3ccc(C(=O)Nc4cc(C(F)(F)F)ccn4)cc3)c3c(N)ncc(c32)/C=C/CCN2CC[C@H]2C(=O)N1 [Example 68] | IC50 | < 100 nM |
| N#Cc1ccnc(NC(=O)c2ccc(-c3nc4n5c(cnc(N)c35)/C=C/CCCCCC(=O)N[C@@H]3CC[C@@H]4C3)cc2)c1 [Example 204] | IC50 | < 100 nM |
| C[C@@H]1CCn2nc(-c3ccc(C(=O)Nc4cc(C(F)(F)F)ccn4)cc3)c3c(N)ncc(c32)/C=C/C[C@H](C)OCCC(=O)N1 [Example 73] | IC50 | < 100 nM |
| Nc1ncc2n3c(nc(-c4ccc(C(=O)Nc5cc(C(F)(F)F)ccn5)cc4)c13)[C@@H]1CCC[C@H](C1)NC(=O)CCOC/C=C/2 [Example 178] | IC50 | < 100 nM |
| Nc1ncc2c3c1c(-c1ccc(C(=O)Nc4cc(C(F)(F)F)ccn4)cc1)nn3[C@@H]1CC[C@H](C1)NC(=O)CCCCC/C=C/2 [Example 168] | IC50 | < 100 nM |
| Nc1ncc2c3c1c(-c1ccc(C(=O)Nc4cc(C(F)(F)F)ccn4)cc1)nn3[C@@H]1CCC[C@H](C1)NC(=O)[C@@H]1CCN(C/C=C/2)C1 [Example 147] | IC50 | < 100 nM |
| COc1cc(-c2nn3c4c(cnc(N)c24)/C=C/CCCCCC(=O)N[C@@H]2CCC[C@@H]3C2)ccc1C(=O)Nc1cc(C(F)(F)F)ccn1 [Example 197] | IC50 | < 100 nM |
| C[C@@H]1CNC(=O)[C@@H]2CCC[C@H](C2)n2nc(-c3ccc(C(=O)Nc4cc(C(F)(F)F)ccn4)cc3)c3c(N)ncc(c32)/C=C/CO1 [Example 149] | IC50 | < 100 nM |
| Nc1ncc2c3c1c(-c1ccc(C(=O)Nc4ccccn4)cc1)nn3C1CCC[C@H](C1)NC(=O)CCCCC/C=C/2 [Example 24] | IC50 | < 100 nM |
| CC(=O)N1CCC/C=C/c2cnc(N)c3c(-c4ccc(C(=O)Nc5cc(C(F)(F)F)ccn5)cc4)nn(c23)[C@@H]2CCC[C@H](C2)NC(=O)C1 [Example 167] | IC50 | < 100 nM |

Every entry's value here was drawn from patent US20250074911A1.
